Kindly supply the reported selectivity ratio values for the records listed here.
assay: Selectivity index, ratio of CC50 for human C8166 cells to EC50 for wild type HIV1 3B; type: toxicity, cell-based; settings: read-out: Ratio CC50/EC50
Give bare numbers.

Solved entries:
molecule: Cc1cc(S(N)(=O)=O)ccc1NC(=O)COc1ccc(Cl)cc1C(O)c1cccc2ccccc12 (racemic)
selectivity ratio: 80.1
--
molecule: Cc1cc(S(N)(=O)=O)ccc1NC(=O)COc1ccc(Cl)cc1C(O)c1ccc2ccccc2c1 (racemic)
selectivity ratio: 14.3
--
molecule: Cc1cc(S(N)(=O)=O)ccc1NC(=O)COc1ccc(Cl)cc1C(O)c1cccc(C)c1C (racemic)
selectivity ratio: 24.1
--
molecule: Cc1cc(S(N)(=O)=O)ccc1NC(=O)COc1ccc(Cl)cc1C(O)c1cccc([N+](=O)[O-])c1 (racemic)
selectivity ratio: 313
--
molecule: Cc1ccc(C)c(C(O)c2cc(Cl)ccc2OCC(=O)Nc2ccc(S(N)(=O)=O)cc2C)c1 (racemic)
selectivity ratio: 43.7
--
molecule: Cc1cn([C@H]2C[C@H](N=[N+]=[N-])[C@@H](CO)O2)c(=O)[nH]c1=O
selectivity ratio: 422000
--
molecule: Cc1cc(S(N)(=O)=O)ccc1NC(=O)COc1ccc(Cl)cc1C(O)c1ccccc1 (racemic)
selectivity ratio: 29.9

We now examine a further molecule.
Please give the measured selectivity ratio for this molecule: Cc1cc(C)cc(C(O)c2cc(Cl)ccc2OCC(=O)Nc2ccc(S(N)(=O)=O)cc2C)c1 (racemic) 166

The measured values listed here are drawn from ChEMBL document CHEMBL1811789.
